Examples of variants with documented folding stability dG follow.
B1: HEEH_KT_rd6_3546 (parent)
chain: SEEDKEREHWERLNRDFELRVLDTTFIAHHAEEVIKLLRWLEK

- Variants of: B1
- Assay Info: folding stability dG (cDNA display proteolysis); higher = more stable
- Measurement Context: PBS, room temperature
Field format: number, assumed kcal/mol, no unit text.

Solved entries (count: 4):
Bench note: what folding stability dG did SEEDKEREHWERLNRDFELRVLDTTFIAHHAEEVIKLLSWLEK [R39S] show?
1.01

Consider the variant shown here: SEEDKEREHWERLNTDFELRVLDTTFIAHHAEEVIKLLRWLEK [R15T] What is its recorded folding stability dG?
1.4

Consider the variant SEEDKEREHWERLNRDFELRVLDTTFIADHAEEVIKLLRWLEK [H29D] and give its measured folding stability dG.
1.05

Please report the recorded folding stability dG for SEEDKEREHWERLNRDFELRFLDTTFIAHHAEEVIKLLRWLEK [V21F] .
1.72

Continuing:
# input variant: SEEDKEREHWERLNRDFELRVLPTTFIAHHAEEVIKLLRWLEK [D23P] ; wanted: its folding stability dG
1.35

Query (variant): SEEDKYREHWERLNRDFELRVLDTTFIAHHAEEVIKLLRWLEK [E6Y] ; field requested: folding stability dG
1.55

I would be grateful if you could share the reported folding stability dG for SEEDKEREHWERLNRDFELRVLDTTFIAHHAEENIKLLRWLEK [V34N] .
-0.04

Bench note: what folding stability dG did SEEDKEREHWERLNRDFELRVLDTTFIAHHAEEVIKLLRPLEK [W40P] show?
-0.109

# query: folding stability dG of entry SEEDKEREHWERLNRDFHLRVLDTTFIAHHAEEVIKLLRWLEK [E18H]
1.79

Which folding stability dG is reported for this variant? SEEDKEREHWLRLNRDFELRVLDTTFIAHHAEEVIKLLRWLEK [E11L]
2.11

Item SEEDKEREHWERLNRDMELRVLDTTFIAHHAEEVIKLLRWLEK [F17M] has what recorded folding stability dG?
1.01

What measured folding stability dG goes with SEEDKEREHWERLNRDFELRVLDTTFIAHHEEEVIKLLRWLEK [A31E] ?
0.663

Can you look up the measured folding stability dG of SEEDKEREHWERLNRDFELRVLDTTFIAHHAEEVIKLLRWYEK [L41Y] for me?
0.761
